// values below are reported GI50
- System: ACHN
- test-name: NCI tumour cell line growth inhibition, 48 h
Calls of active or inactive are those of the source. Cut-off read from the data, not from the text of the source: active = GI50 up to about 1.1 µM and inactive = higher.

Examples with answers:
molecule	system-name	GI50
O=[N+]([O-])c1ccc2oc(=N/c3ccccc3)/c(=N\c3ccccc3)[nH]c2c1	ACHN	24.7 µM (inactive)
CC1=NN(c2nc(N)nc(CO)n2)C(C)(C)C1	ACHN	> 100 µM (inactive)
COc1ccc(C(=O)/C=C/c2ccc(OCC(=O)O)cc2)cc1	ACHN	> 100 µM (inactive)
C/C=C\C(CC(=O)NCC(=O)c1c[nH]c2ccccc12)CC(=O)OC (stereo not drawn)	ACHN	> 100 µM (inactive)
N#Cc1ccccc1OCCOc1ccccc1C#N	ACHN	> 100 µM (inactive)

*Q* Complete the entry with GI50 for CN(C)c1ccc(/C=c2/c3ccccc3n3c2cc(NC(=O)NCCC[N+](C)(C)C)[n+]3C)cc1
*A* > 100 µM (inactive)

*Q* Complete the entry with GI50 for O=C1/C(=C2\Sc3c(ccc(Cl)c3Cl)C2=O)Sc2c1ccc(Cl)c2Cl
*A* > 100 µM (inactive)

*Q* Complete the entry with GI50 for CC1CC[C@@]2(OC1)OC1C[C@H]3[C@@H]4CC[C@H]5CC(OC6OC(CO)C(O)C(OC7OC(CO)C(OC8OC(CO)C(O)C(OC9OC(CO)C(O)C(O)C9O)C8OC8OC(CO)C(O)C(O)C8O)C(O)C7O)C6O)[C@H](O)CC5(C)[C@H]4CCC3(C)C1[C@@H]2C (stereo partly drawn)
*A* 1.9 µM (inactive)
